# Assay Details: in vivo
# Assay type: in vivo, cynomolgus monkeys
# Settings: male, cynomolgus monkey, in vivo, im, 20 mg/kg, Abiraterone Decanoate plasma AUC0-[…] (mean)
Measurement Kind: AUC(0-t) (ng·h/mL)

[
  {
    "Compound": "CCCCCCCCCC(=O)O[C@H]1CC[C@@]2(C)C(=CC[C@@H]3[C@@H]2CC[C@]2(C)C(c4cccnc4)=CC[C@@H]32)C1 [Abiraterone Decanoate, abiraterone decanoate]",
    "Result Number": 888
  }
]

###

# Assay Details: Tissue uptake study: plasma and tissue concentrations of abiraterone and abiraterone decanoate after single IV or IM injection
# Assay type: in vivo, rats, strain CD [Crl:CD(SD)]
# Settings: CD [Crl:CD(SD)], rat, lung, intramuscular, 90 mg/kg; read-out: Decanoate concentration, Lung

[
  {
    "Molecule": "CCCCCCCCCC(=O)O[C@H]1CC[C@@]2(C)C(=CC[C@@H]3[C@@H]2CC[C@]2(C)C(c4cccnc4)=CC[C@@H]32)C1 [Abiraterone Decanoate, abiraterone decanoate]",
    "Result Units": "ng/g",
    "concentration at 7 days": 735
  }
]

###

# Assay Details: in vivo
# Assay type: in vivo, cynomolgus monkeys
# Settings: male, cynomolgus monkey, in vivo, im, 200 mg/kg, Abiraterone Decanoate plasma AUC0-[…] (mean)
Measurement Kind: AUC(0-t) (ng·h/mL)

[
  {
    "Compound": "CCCCCCCCCC(=O)O[C@H]1CC[C@@]2(C)C(=CC[C@@H]3[C@@H]2CC[C@]2(C)C(c4cccnc4)=CC[C@@H]32)C1 [Abiraterone Decanoate, abiraterone decanoate]",
    "Result Units": "ng·h/mL",
    "Result Number": 13100
  }
]

###

# Assay Details: in vivo
# Type: in vivo, cynomolgus monkeys
# Settings: male, cynomolgus, cynomolgus monkey, in vivo, im, 60 mg/kg, Abiraterone Decanoate plasma AUC0-[…] (mean)
Measurement Kind: AUC(0-t) (ng·h/mL)

[
  {
    "Molecule": "CCCCCCCCCC(=O)O[C@H]1CC[C@@]2(C)C(=CC[C@@H]3[C@@H]2CC[C@]2(C)C(c4cccnc4)=CC[C@@H]32)C1 [Abiraterone Decanoate, abiraterone decanoate]",
    "Measurement Kind": "AUC(0-t)",
    "Result Number": 2190
  }
]

###

# Assay Details: Tissue uptake study: plasma and tissue concentrations of abiraterone and abiraterone decanoate after single IV or IM injection
# Assay type: in vivo, rats, strain CD [Crl:CD(SD)]
# Settings: male, CD [Crl:CD(SD)], rat, plasma, intramuscular, 90 mg/kg; read-out: Decanoate concentration, Plasma

[
  {
    "Compound": "CCCCCCCCCC(=O)O[C@H]1CC[C@@]2(C)C(=CC[C@@H]3[C@@H]2CC[C@]2(C)C(c4cccnc4)=CC[C@@H]32)C1 [Abiraterone Decanoate, abiraterone decanoate]",
    "concentration at 7 days": "3.1 ng/mL"
  }
]

###

# Assay Details: in vivo
# Type: in vivo, cynomolgus monkeys
# Settings: male, cynomolgus, cynomolgus monkey, in vivo, im, 200 mg/kg, Abiraterone Decanoate plasma Cmax (mean)
Measurement Kind: Cmax

[
  {
    "Compound": "CCCCCCCCCC(=O)O[C@H]1CC[C@@]2(C)C(=CC[C@@H]3[C@@H]2CC[C@]2(C)C(c4cccnc4)=CC[C@@H]32)C1 [Abiraterone Decanoate, abiraterone decanoate]",
    "Result": "71.3 ng/mL"
  }
]

###

# Assay Details: Tissue uptake study: plasma and tissue concentrations of abiraterone and abiraterone decanoate after single IV or IM injection
# Format: in vivo, rats, strain CD [Crl:CD(SD)]
# Settings: male, CD [Crl:CD(SD)], rat, prostate, intramuscular, 90 mg/kg; read-out: Decanoate concentration, Prostate

[
  {
    "Compound": "CCCCCCCCCC(=O)O[C@H]1CC[C@@]2(C)C(=CC[C@@H]3[C@@H]2CC[C@]2(C)C(c4cccnc4)=CC[C@@H]32)C1 [Abiraterone Decanoate, abiraterone decanoate]",
    "concentration at 7 days, ng/g": 0
  }
]

###

# Assay Details: Tissue uptake study: plasma and tissue concentrations of abiraterone and abiraterone decanoate after single IV or IM injection
# Type: in vivo, rats, strain CD [Crl:CD(SD)]
# Settings: CD [Crl:CD(SD)], rat, iliac lymph node, intramuscular, 90 mg/kg; read-out: Decanoate concentration, iliac lymph
Measurement Kind: concentration at 7 days (ng/g)

[
  {
    "Molecule": "CCCCCCCCCC(=O)O[C@H]1CC[C@@]2(C)C(=CC[C@@H]3[C@@H]2CC[C@]2(C)C(c4cccnc4)=CC[C@@H]32)C1 [Abiraterone Decanoate, abiraterone decanoate]",
    "Measurement Kind": "concentration at 7 days",
    "Result Units": "ng/g",
    "Result Number": 91000
  }
]

###

# Assay Details: in vivo
# Assay type: in vivo, cynomolgus monkeys
# Settings: male, cynomolgus, cynomolgus monkey, in vivo, im, 200 mg/kg, Abiraterone Decanoate plasma AUC0-[…] (mean)
Measurement Kind: AUC(0-t)

[
  {
    "Compound": "CCCCCCCCCC(=O)O[C@H]1CC[C@@]2(C)C(=CC[C@@H]3[C@@H]2CC[C@]2(C)C(c4cccnc4)=CC[C@@H]32)C1 [Abiraterone Decanoate, abiraterone decanoate]",
    "Measurement Kind": "AUC(0-t)",
    "Result": "12400 ng·h/mL"
  }
]

###

# Assay Details: in vivo
# Assay type: in vivo, cynomolgus monkeys
# Settings: male, cynomolgus, cynomolgus monkey, in vivo, im, 60 mg/kg, Abiraterone Decanoate plasma Cmax (mean)
Measurement Kind: Cmax (ng/mL)

[
  {
    "Compound": "CCCCCCCCCC(=O)O[C@H]1CC[C@@]2(C)C(=CC[C@@H]3[C@@H]2CC[C@]2(C)C(c4cccnc4)=CC[C@@H]32)C1 [Abiraterone Decanoate, abiraterone decanoate]",
    "Measurement Kind": "Cmax",
    "Result Number": 15.8
  }
]

###

# Assay Details: in vivo
# Format: in vivo, cynomolgus monkeys
# Settings: male, cynomolgus, cynomolgus monkey, in vivo, im, 20 mg/kg, Abiraterone Decanoate plasma Cmax (mean)
# Method: Toxicokinetic parameters were obtained for each animal on Days 1, 29, and 71. […] For each animal, the following toxicokinetic parameters were determined: maximum observed plasma concentration (Cmax), time of maximum observed plasma concentration (Tmax), and area under the plasma concentration-time curve (AUC).

[
  {
    "Molecule": "CCCCCCCCCC(=O)O[C@H]1CC[C@@]2(C)C(=CC[C@@H]3[C@@H]2CC[C@]2(C)C(c4cccnc4)=CC[C@@H]32)C1 [Abiraterone Decanoate, abiraterone decanoate]",
    "Cmax (ng/mL)": 6.27
  }
]
